meta.source: patent US7402597B2

Relative activity for PPAR transactivation, α listing for selected compounds.
# experimental.target: PPARα (Homo sapiens)
# Construct: Receptor expression plasmid (GAL4-hPPARα, LBD GAL4-hPPARγ LBD, GAL4-hPPARδ LBD); expressed in transfected cells; host or cells: CV-1 cells
# Sequence (Q07869 239-466 limits assumed): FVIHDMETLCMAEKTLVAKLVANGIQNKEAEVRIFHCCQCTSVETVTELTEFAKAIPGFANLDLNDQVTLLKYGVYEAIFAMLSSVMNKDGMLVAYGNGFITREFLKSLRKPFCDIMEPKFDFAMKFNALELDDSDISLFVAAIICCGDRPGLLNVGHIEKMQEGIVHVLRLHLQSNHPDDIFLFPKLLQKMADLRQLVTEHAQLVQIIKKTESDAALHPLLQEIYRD
# method.description: PPARα transactivation activity (GAL4-hPPARα LBD luciferase reporter in CV-1 cells)
# Type: cell-based
# test.parameters: compounds at 10^-7 M

Past entries and their recorded results:
[[record]]
compound = "Cc1cc2c(CCc3sc(-c4ccc(C(F)(F)F)cc4)nc3C(C)C)noc2cc1OCC(=O)O [Example 5]"
experimental_target = "PPARα (Homo sapiens)"
reported = "0 % of control"

[[record]]
compound = "Cc1cc2c(CCc3sc(-c4ccc(C(F)(F)F)cc4)nc3C(C)C)noc2cc1SCC(=O)O [Example 7]"
experimental_target = "PPARα (Homo sapiens)"
reported = "0 % of control"

[[record]]
compound = "Cc1cc2c(CCc3sc(-c4ccc(C(F)(F)F)cc4)nc3C(C)C)noc2cc1OC(C)(C)C(=O)O [Example 6]"
experimental_target = "PPARα (Homo sapiens)"
reported = "0 % of control"

[[record]]
compound = "Cc1cc2c(CCc3nc(-c4ccc(Cl)cc4Cl)oc3C(C)C)noc2cc1OCC(=O)O [Example 9]"
experimental_target = "PPARα (Homo sapiens)"
reported = "0 % of control"

[[record]]
compound = "Cc1cc2c(CCc3sc(-c4ccc(C(F)(F)F)cc4)nc3C(C)C)noc2cc1OC(C)(C)C(=O)OCCN1CCCCC1.Cl [Example 10]"
experimental_target = "PPARα (Homo sapiens)"
reported = "3 % of control"


Now for a further compound.
Note to self: Relative activity for PPAR transactivation, α recorded for Cc1cc2c(CCc3sc(-c4ccc(C(F)(F)F)cc4)nc3C(C)C)noc2cc1NCC(=O)O [Example 8] was 0 % of control
